target: adrenergic alpha2C receptor (Homo sapiens, UniProt P18825); assay: biochemical; format: binding; settings: read-out: Ki
Parameter: pKi
Give bare numbers, as −log10 of the molar value.

Data request: Complete the entry with pKi for "CC[C@H]1CN2CCc3c([nH]c4cccc(OC)c34)[C@@H]2C[C@@H]1/C(=C\OC)C(=O)OC"
Data returned: 6.17

----------
biological target: UniProtKB P08908; experiment: biochemical; type: binding
Parameter: Ki

Solved cases below.
CC[C@@H]1CN2CC[C@]3(C(=O)Nc4ccccc43)[C@@H]2C[C@@H]1/C(=C\OC)C(=O)OC    > 10 µM
C=C[C@H]1CN2CC[C@]3(C(=O)Nc4ccccc43)[C@@H]2C[C@@H]1/C(=C\OC)C(=O)OC    > 10 µM
CC[C@H]1CN2CC[C@@]3(C(=O)Nc4ccccc43)[C@@H]2C[C@@H]1/C(=C\OC)C(=O)OC    > 10 µM
C=C[C@H]1CN2CC[C@@]3(C(=O)Nc4ccccc43)[C@@H]2C[C@@H]1/C(=C\OC)C(=O)OC    > 10 µM
COC(=O)C1=CO[C@@H](C)C2CN3CCc4c([nH]c5ccccc45)[C@@H]3C[C@H]12 (stereo partly drawn)    0.42 µM

Data request: Please give measured Ki of the following entry: COC(=O)C1=CO[C@@H](C)[C@@H]2CN3CCc4c([nH]c5ccccc45)[C@@H]3C[C@H]12 [Compound 12, Tetrahydroalstonine]
Data returned: 0.38 µM

----------
target: serotonin 5HT2A receptor (Homo sapiens, UniProt P28223); construct: host or cells: transient HEKT cells (ATCC CRL-11268); assay: biochemical; type: binding
Sequence (P28223 whole entry): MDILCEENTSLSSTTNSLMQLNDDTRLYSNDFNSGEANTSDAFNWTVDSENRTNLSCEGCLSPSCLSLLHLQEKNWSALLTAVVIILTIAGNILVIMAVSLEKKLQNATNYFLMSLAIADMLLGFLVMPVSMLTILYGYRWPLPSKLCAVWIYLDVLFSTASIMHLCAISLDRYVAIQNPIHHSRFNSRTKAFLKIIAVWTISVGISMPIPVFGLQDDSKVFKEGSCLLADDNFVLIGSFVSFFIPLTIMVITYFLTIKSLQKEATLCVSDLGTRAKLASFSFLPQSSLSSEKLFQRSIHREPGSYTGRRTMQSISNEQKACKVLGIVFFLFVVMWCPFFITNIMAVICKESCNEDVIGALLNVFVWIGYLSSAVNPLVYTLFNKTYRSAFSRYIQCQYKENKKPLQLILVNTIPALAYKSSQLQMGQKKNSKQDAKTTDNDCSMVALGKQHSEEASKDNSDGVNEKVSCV
Parameter: Ki

CC[C@H]1CN2CC[C@@]3(C(=O)Nc4ccccc43)[C@@H]2C[C@@H]1/C(=C\OC)C(=O)OC    > 10 µM
COC(=O)C1=CO[C@@H](C)C2CN3CCc4c([nH]c5ccccc45)[C@@H]3C[C@H]12 (stereo partly drawn)    > 10 µM
C=C[C@H]1CN2CC[C@]3(C(=O)Nc4ccccc43)[C@@H]2C[C@@H]1/C(=C\OC)C(=O)OC    > 10 µM

For every item in the list below, what is its measured Ki?
1. CC[C@@H]1CN2CC[C@]3(C(=O)Nc4ccccc43)[C@@H]2C[C@@H]1/C(=C\OC)C(=O)OC
2. C=C[C@H]1CN2CC[C@@]3(C(=O)Nc4ccccc43)[C@@H]2C[C@@H]1/C(=C\OC)C(=O)OC
3. COC(=O)C1=CO[C@@H](C)[C@@H]2CN3CCc4c([nH]c5ccccc45)[C@@H]3C[C@H]12 [Compound 12, Tetrahydroalstonine]

Data returned:
> 10 µM
> 10 µM
2.6 µM

----------
Biological target: adrenergic alpha2C receptor (Homo sapiens, UniProt P18825)
Sequence (P18825 1-462): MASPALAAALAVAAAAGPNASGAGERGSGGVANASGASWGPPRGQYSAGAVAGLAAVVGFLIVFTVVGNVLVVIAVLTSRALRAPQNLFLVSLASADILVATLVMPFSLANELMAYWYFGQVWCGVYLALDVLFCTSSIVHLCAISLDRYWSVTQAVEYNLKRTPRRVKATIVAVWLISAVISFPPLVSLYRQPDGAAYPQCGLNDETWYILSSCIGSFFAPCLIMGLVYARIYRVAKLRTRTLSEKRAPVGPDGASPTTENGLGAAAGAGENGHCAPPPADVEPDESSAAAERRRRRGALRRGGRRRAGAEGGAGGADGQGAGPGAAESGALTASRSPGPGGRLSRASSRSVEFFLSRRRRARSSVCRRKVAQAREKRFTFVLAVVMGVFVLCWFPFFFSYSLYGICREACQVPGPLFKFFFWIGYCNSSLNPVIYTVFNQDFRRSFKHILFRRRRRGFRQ
Assay: biochemical
Assay type: binding
Parameter: Ki

CC[C@H]1CN2CC[C@@]3(C(=O)Nc4ccccc43)[C@@H]2C[C@@H]1/C(=C\OC)C(=O)OC [Compound 16, Isorhynchophylline]    > 10 µM
COC(=O)C1=CO[C@@H](C)C2CN3CCc4c([nH]c5ccccc45)[C@@H]3C[C@H]12 (stereo partly drawn) [Compound 11, Ajmalicine]    0.065 µM
COC(=O)C1=CO[C@@H](C)[C@@H]2CN3CCc4c([nH]c5ccccc45)[C@@H]3C[C@H]12 [Compound 12, Tetrahydroalstonine]    0.053 µM
C=C[C@H]1CN2CC[C@@]3(C(=O)Nc4ccccc43)[C@@H]2C[C@@H]1/C(=C\OC)C(=O)OC [Compound 21, Isocorynoxeine]    > 10 µM
C=C[C@H]1CN2CC[C@]3(C(=O)Nc4ccccc43)[C@@H]2C[C@@H]1/C(=C\OC)C(=O)OC [Compound 20, Corynoxeine]    > 10 µM

Continue with the compound presented below.
Data request: Retrieve Ki measured for CC[C@@H]1CN2CC[C@]3(C(=O)Nc4ccccc43)[C@@H]2C[C@@H]1/C(=C\OC)C(=O)OC [Compound 14, Corynoxine B] and print it.
Data returned: > 10 µM

----------
target: delta opioid receptor (Homo sapiens, UniProt P41143); test: biochemical; type: binding
Sequence (P41143 whole entry): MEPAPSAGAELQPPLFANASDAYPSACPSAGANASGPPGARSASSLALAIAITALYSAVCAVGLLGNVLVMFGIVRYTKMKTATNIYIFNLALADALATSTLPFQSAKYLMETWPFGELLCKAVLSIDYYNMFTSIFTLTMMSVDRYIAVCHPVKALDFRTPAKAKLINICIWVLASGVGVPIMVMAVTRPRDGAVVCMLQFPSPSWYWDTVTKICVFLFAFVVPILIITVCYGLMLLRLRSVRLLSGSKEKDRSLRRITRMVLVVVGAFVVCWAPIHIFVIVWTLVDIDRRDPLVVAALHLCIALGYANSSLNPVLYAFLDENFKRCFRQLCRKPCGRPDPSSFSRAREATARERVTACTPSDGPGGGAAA
Parameter: Ki

Study these solved cases before continuing.
CC[C@@H]1CN2CC[C@]3(C(=O)Nc4ccccc43)[C@@H]2C[C@@H]1/C(=C\OC)C(=O)OC    7.6 µM
CC[C@H]1CN2CC[C@@]3(C(=O)Nc4ccccc43)[C@@H]2C[C@@H]1/C(=C\OC)C(=O)OC    6.4 µM
C=C[C@H]1CN2CC[C@]3(C(=O)Nc4ccccc43)[C@@H]2C[C@@H]1/C(=C\OC)C(=O)OC    > 10 µM
COC(=O)C1=CO[C@@H](C)C2CN3CCc4c([nH]c5ccccc45)[C@@H]3C[C@H]12 (stereo partly drawn)    > 10 µM
C=C[C@H]1CN2CC[C@@]3(C(=O)Nc4ccccc43)[C@@H]2C[C@@H]1/C(=C\OC)C(=O)OC    > 10 µM

With those in mind, consider the next compound.
Data request: Given COC(=O)C1=CO[C@@H](C)[C@@H]2CN3CCc4c([nH]c5ccccc45)[C@@H]3C[C@H]12 [Compound 12, Tetrahydroalstonine] , respond with its Ki.
Data returned: > 10 µM

----------
The next entries give measured pKi for mu opioid receptor (Homo sapiens, UniProt P35372).
Numbers only, as −log10 of the molar value.

Field: pKi. Fill in for each record below.
1. CC[C@@H]1CN2CC[C@]3(C(=O)Nc4ccccc43)[C@@H]2C[C@@H]1/C(=C\OC)C(=O)OC
2. COC(=O)C1=CO[C@@H](C)C2CN3CCc4c([nH]c5ccccc45)[C@@H]3C[C@H]12 (some centres unmarked)

Data returned:
[5.80, 5.05]

----------
target: adrenergic alpha2B receptor (Homo sapiens); construct: host or cells: transient HEKT cells; assay: biochemical; assay type: binding
Please respond with reported Ki for every item in the list.
Give bare numbers, in µM.

COC(=O)C1=CO[C@@H](C)[C@@H]2CN3CCc4c([nH]c5ccccc45)[C@@H]3C[C@H]12 [Compound 12, Tetrahydroalstonine]    0.04

Data request: GET Ki where system = adrenergic alpha2B receptor (Homo sapiens) and item = C=C[C@H]1CN2CC[C@]3(C(=O)Nc4ccccc43)[C@@H]2C[C@@H]1/C(=C\OC)C(=O)OC [Compound 20, Corynoxeine]
Data returned: 8.4

----------
target: adrenergic alpha2B receptor (Homo sapiens, UniProt P18089); construct: host or cells: transient HEKT cells; assay: biochemical; assay type: binding; conditions: read-out: Ki
Sequence (P18089 whole entry): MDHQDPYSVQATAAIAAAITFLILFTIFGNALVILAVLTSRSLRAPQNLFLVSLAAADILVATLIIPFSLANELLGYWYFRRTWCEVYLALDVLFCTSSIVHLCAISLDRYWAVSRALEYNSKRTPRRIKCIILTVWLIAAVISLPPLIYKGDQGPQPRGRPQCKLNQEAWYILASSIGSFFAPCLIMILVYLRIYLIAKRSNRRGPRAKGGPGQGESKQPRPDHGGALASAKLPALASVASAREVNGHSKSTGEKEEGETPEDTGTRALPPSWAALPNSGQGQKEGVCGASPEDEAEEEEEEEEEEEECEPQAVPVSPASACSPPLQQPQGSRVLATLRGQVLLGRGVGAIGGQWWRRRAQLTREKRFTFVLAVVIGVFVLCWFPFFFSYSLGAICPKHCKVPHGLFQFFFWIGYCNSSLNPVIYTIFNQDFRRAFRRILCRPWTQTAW
Parameter: Ki

CC[C@H]1CN2CCc3c([nH]c4cccc(OC)c34)[C@@H]2C[C@@H]1/C(=C\OC)C(=O)OC    2.6 µM

API: the following record is the query input.
Data request: Look up and state reported Ki for CC[C@@H]1CN2CC[C@@]3(O)C(=Nc4cccc(OC)c43)[C@@H]2C[C@@H]1/C(=C\OC)C(=O)OC [Compound 7, 7-Hydroxymitragynine]
Data returned: > 10 µM

----------
target: serotonin 5HT1A receptor (Homo sapiens); assay: biochemical; assay type: binding; settings: read-out: Ki
Sequence (P08908 whole entry): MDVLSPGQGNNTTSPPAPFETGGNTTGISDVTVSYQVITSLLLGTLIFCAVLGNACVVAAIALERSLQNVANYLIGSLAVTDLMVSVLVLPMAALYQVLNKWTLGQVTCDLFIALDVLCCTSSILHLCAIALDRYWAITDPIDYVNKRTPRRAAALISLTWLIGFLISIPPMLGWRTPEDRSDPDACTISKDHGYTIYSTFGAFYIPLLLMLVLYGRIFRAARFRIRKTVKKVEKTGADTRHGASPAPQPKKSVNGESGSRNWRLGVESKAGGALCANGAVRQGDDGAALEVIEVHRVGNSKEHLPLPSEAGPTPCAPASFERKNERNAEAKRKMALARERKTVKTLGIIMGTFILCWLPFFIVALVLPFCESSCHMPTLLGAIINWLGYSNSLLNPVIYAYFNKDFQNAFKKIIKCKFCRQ
Parameter: Ki (nM)
Numbers only, in nM.

Data request: Tell me measured Ki for "CC[C@H]1CN2CCc3c([nH]c4cccc(OC)c34)[C@@H]2C[C@@H]1/C(=C\OC)C(=O)OC" please.
Data returned: 540

----------
Assignment: determine reported pKi for the given compounds.
target: adrenergic alpha2A receptor (Homo sapiens, UniProt P08913); assay: biochemical; type: binding
Sequence (P08913 whole entry): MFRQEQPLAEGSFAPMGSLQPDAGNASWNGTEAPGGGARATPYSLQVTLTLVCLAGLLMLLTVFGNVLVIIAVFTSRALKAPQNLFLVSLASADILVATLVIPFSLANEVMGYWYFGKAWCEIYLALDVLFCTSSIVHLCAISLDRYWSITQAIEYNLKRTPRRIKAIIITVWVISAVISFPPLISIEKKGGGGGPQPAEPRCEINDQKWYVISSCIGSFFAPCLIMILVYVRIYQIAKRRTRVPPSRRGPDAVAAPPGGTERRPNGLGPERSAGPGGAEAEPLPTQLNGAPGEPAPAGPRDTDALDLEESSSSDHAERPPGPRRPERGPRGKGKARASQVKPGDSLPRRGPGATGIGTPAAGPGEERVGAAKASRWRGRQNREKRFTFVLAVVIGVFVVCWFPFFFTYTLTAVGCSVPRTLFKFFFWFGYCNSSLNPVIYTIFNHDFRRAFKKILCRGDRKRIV
One number for each entry, as −log10 of the molar value.

COC(=O)C1=CO[C@@H](C)C2CN3CCc4c([nH]c5ccccc45)[C@@H]3C[C@H]12 (stereo partly drawn)    7.35
COC(=O)C1=CO[C@@H](C)[C@@H]2CN3CCc4c([nH]c5ccccc45)[C@@H]3C[C@H]12 [Compound 12, Tetrahydroalstonine]    7.74

Next, consider the following compound.
Data request: Tell me measured pKi for "CC[C@H]1CN2CC[C@@]3(C(=O)Nc4ccccc43)[C@@H]2C[C@@H]1/C(=C\OC)C(=O)OC" please.
Data returned: 5.32
